- measured-target: Fibrinogen (Homo sapiens, UniProt P05106+P08514)
- Construct: endogenous in cells
- Sequence (P08514 32-887 limits assumed): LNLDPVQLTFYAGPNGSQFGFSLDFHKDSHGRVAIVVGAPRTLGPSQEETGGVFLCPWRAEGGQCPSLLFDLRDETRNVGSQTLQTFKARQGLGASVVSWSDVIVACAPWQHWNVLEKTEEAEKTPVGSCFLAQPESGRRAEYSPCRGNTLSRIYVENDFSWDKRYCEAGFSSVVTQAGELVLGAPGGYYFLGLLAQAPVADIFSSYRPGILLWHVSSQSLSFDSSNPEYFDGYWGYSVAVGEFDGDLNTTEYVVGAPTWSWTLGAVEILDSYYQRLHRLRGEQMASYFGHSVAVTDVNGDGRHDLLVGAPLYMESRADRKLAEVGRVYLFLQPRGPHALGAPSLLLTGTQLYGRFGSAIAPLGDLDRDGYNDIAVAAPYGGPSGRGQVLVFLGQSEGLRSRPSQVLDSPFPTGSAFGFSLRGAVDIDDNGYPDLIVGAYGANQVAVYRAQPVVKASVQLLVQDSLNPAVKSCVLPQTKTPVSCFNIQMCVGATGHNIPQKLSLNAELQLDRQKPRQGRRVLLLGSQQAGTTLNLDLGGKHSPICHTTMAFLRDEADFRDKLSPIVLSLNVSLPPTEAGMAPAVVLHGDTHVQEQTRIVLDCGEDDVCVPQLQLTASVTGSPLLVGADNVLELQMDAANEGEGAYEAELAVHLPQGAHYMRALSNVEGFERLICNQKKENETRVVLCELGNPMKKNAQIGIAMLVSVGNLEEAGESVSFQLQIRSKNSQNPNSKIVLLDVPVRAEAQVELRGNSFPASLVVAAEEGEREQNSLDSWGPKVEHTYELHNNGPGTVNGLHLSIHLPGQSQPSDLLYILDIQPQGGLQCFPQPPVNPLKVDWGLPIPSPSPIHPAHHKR
- Sequence (P08514 891-1039 limits assumed): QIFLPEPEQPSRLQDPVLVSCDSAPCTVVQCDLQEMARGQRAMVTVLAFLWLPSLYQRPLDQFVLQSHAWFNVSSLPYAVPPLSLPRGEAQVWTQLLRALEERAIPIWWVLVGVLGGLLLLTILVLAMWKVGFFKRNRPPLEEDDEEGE
- Sequence (P05106 27-788): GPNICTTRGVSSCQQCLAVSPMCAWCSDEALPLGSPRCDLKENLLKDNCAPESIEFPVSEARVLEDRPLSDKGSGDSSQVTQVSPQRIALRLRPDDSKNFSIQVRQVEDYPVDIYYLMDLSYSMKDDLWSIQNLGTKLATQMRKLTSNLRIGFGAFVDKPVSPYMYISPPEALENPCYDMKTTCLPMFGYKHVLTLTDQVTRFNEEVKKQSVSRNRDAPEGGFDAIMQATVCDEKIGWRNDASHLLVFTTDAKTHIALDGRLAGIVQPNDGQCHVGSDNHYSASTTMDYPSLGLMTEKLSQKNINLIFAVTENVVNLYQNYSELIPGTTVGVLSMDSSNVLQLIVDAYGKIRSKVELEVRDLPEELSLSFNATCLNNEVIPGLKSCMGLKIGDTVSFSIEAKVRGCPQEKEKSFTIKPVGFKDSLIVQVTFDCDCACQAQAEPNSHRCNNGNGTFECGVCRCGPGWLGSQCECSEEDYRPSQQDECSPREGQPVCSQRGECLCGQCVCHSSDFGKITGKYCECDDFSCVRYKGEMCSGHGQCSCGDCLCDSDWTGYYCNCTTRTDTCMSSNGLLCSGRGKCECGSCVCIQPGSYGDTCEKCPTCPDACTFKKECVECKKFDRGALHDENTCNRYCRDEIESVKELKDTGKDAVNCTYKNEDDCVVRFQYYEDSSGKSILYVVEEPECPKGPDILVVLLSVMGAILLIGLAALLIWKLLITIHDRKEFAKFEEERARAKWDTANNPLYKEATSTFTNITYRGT
- assay-remarks: Bonding of platelets to fibrinogen
- measurement-conditions: activated, paraformaldehyde-fixed platelets; plate coated with fibrinogen 5 μg/ml; 37° C. 2 hours; read-out: IC50, inhibition of bonding of platelets to Fibrinogen
experimental-endpoint: pIC50
Please keep in mind that pIC50 is minus log10 of the molar concentration; only the number is needed.

Query :: Reported pIC50, compound COc1ccc(C[C@H](NC(=O)CCC2CCNCC2)C(=O)N2CCC(OCC(=O)O)CC2)cc1 : ____
Result :: 6.35

Query :: Reported pIC50, compound COc1ccc(C[C@H](NC(=O)CCCC2CCNCC2)C(=O)N2CCC(OCC(=O)O)CC2)cc1 : ____
Result :: 4.20

Query :: Reported pIC50, compound COc1ccc(C[C@H](NC(=O)COC2CCNCC2)C(=O)N2CCC(OCC(=O)O)CC2)cc1 : ____
Result :: 6.60
